# System: DMS-273
# experimentSummary: NCI tumour cell line growth inhibition, 48 h
The source made the active and inactive calls. Rule as the data show it: active = GI50 up to about 1.1 µM and inactive = higher.
Measured GI50 values are reported for all entries that follow.
recordedEndpoint: GI50

1) O=S(=O)(N/N=C/c1c(Cl)cccc1Cl)c1ccccc1	> 100 µM (inactive)
2) CCOCN1COCN/C1=N/C#N	> 100 µM (inactive)
3) CC1=Nc2ccccc2C12C(c1ccccc1)C(c1ccccc1)C(=O)N1c3ccccc3CC12 (stereo unspecified)	> 100 µM (inactive)
4) CCCSc1nc(COC(=O)NC)c(COC(=O)NC)n1C	> 95.5 µM (inactive)
5) CCC12CCCN(Cc3ccccc3)C1c1c(n(C)c3ccccc13)CC2 (stereo unspecified)	166 µM (inactive)
6) O=C1OCc2c1cc1ccc(O)c(OC3OC(CO)C(O)C(O)C3O)c1c2-c1ccc2c(c1)OCO2 (stereo unspecified)	94.6 µM (inactive)
